- PROTOCOL TEXT: self-splicing fitness, log relative to wild type (ln ratio); higher = more splicing; Tetrahymena group I intron in knt gene, E. coli kanamycin selection, DiMSum; sequences stand for … in CUCUCU…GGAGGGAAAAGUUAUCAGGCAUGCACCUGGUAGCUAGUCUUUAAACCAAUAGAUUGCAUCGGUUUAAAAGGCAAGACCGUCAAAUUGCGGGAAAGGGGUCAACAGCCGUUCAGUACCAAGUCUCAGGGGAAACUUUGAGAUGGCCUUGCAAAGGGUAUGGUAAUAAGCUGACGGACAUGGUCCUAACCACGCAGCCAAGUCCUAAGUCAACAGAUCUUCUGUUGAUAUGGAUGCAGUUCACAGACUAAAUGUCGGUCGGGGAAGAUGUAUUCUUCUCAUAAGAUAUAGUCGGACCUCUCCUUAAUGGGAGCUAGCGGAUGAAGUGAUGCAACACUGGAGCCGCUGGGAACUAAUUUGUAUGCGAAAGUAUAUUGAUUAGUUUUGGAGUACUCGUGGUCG;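 note: selection with 25 µg/mL kanamycin versus none on LB agar overnight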
- EXPERIMENTAL PARAMETERS: 37 °C
Classify by measured self-splicing fitness (ln): YES if it is equal to or exceeds -2, NO if it is smaller.

Solved entries (count: 8):
Ask: Has `AAAAAGCAAUAUUACGCGCG` a recorded self-splicing fitness (ln) greater than or equal to -2?
Result: YES

Ask: Is self-splicing fitness (ln) for `ACGGAGCAAUAUUACGAUCG` at or above -2?
Result: YES

Ask: Hi, just wondering whether `AAUAAGCAAUAUUACGCGGU` shows self-splicing fitness (ln) of -2 or higher.
Result: NO

Ask: Answer whether self-splicing fitness (ln) of `ACUCAGCAAUAUUACGGGUA` is greater than or equal to -2.
Result: YES

Ask: Answer whether self-splicing fitness (ln) of `ACGUAGCAAUAUUACGCAUG` is greater than or equal to -2.
Result: YES

Ask: Determine whether this sequence has self-splicing fitness (ln) no lower than -2: `ACCGAGCAAUAUUACGUUCC`
Result: YES

Ask: Given the entry `CUAUAGCAAUAUUACGCGAA` , answer whether its self-splicing fitness (ln) meets or surpasses -2.
Result: NO

Ask: Hello, I need to know if `AAACAGCAAUAUUACGGGUG` has measured self-splicing fitness (ln) not below -2. Thanks!
Result: YES

***
Ask: Test whether the sequence `ACUAAGCAAUAUUACGUUUG` records self-splicing fitness (ln) of -2 or higher.
Result: NO

Ask: Confirm if self-splicing fitness (ln) reported for the sequence `CGUUAGCAAUAUUACGACUG` is -2 or above.
Result: YES

Ask: Check this sequence for self-splicing fitness (ln) at or above -2: `AUUCAGCAAUAUUACGAAGC`
Result: YES

Ask: Check this sequence for self-splicing fitness (ln) at or above -2: `UGCAAGCAAUAUUACGUUUC`
Result: NO

Ask: Check if self-splicing fitness (ln) >= -2 (inclusive). Item: `GAUUAGCAAUAUUACGGAUG`
Result: YES

Ask: Check if self-splicing fitness (ln) >= -2 (inclusive). Item: `UCUUAGCAAUAUUACGGGGU`
Result: NO

Ask: Is self-splicing fitness (ln) at least -2? Consider `GUUGAGCAAUAUUACGAUCU`
Result: YES

###

- PROTOCOL TEXT: self-splicing fitness, log relative to wild type (ln ratio); higher = more splicing; Tetrahymena group I intron in knt gene, E. coli kanamycin selection, DiMSum; sequences stand for … in CUCUCU…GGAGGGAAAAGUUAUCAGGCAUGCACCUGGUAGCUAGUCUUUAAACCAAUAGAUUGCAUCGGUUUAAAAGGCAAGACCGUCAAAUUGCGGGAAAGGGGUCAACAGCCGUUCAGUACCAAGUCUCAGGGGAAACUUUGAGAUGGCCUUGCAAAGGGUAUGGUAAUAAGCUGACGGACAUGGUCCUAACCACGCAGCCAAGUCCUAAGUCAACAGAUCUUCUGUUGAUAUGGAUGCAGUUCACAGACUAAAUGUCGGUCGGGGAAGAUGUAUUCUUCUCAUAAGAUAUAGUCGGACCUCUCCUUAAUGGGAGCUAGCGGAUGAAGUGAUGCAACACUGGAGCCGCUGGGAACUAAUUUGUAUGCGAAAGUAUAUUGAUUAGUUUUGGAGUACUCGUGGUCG
- EXPERIMENTAL PARAMETERS: 37 °C
// thresholds for self-splicing fitness (ln) classes: lo: < -2; mid: ≥ -2 and < -1; hi: ≥ -1

Worked examples, 4 sequences total:
Ask: Bin this entry: `UGUAAGCAAUAUUACGAUGA`
Result: hi

Ask: Form: Item = `CAACAGCAAUAUUACGGCUA` ; Class = ?
Result: hi

Ask: Class for `CUACAGCAAUAUUACGGCUC` ?
Result: mid

Ask: Where would `CUCCAGCAAUAUUACGGUUC` land among the classes by reported self-splicing fitness (ln)?
Result: lo

Further cases:
Ask: Field: class (self-splicing fitness (ln)) — entry: `GAAAAGCAAUAUUACGGUGU`
Result: hi

Ask: Assign a bin to `CCACAGCAAUAUUACGUACG`
Result: hi

Ask: In plain terms, what class is `GGUUAGCAAUAUUACGUGGA` ?
Result: mid

Ask: Into which category would you place `AUCGAGCAAUAUUACGACAG` ?
Result: lo

###

- PROTOCOL TEXT: self-splicing fitness, log relative to wild type (ln ratio); higher = more splicing; Tetrahymena group I intron in knt gene, E. coli kanamycin selection, DiMSum; sequences stand for … in CUCUCU…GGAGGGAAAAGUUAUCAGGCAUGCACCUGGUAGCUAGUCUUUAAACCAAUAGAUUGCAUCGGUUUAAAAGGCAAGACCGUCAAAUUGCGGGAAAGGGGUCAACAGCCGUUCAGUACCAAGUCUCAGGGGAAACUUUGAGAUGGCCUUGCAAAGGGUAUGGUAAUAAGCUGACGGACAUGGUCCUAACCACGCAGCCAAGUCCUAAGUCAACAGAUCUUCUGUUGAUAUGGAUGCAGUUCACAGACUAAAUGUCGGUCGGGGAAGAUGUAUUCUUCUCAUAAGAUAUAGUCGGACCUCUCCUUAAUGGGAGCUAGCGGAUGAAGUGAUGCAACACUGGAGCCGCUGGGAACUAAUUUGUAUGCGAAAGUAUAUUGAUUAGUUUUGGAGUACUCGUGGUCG
- EXPERIMENTAL PARAMETERS: 37 °C
MEASUREMENT LABEL: self-splicing fitness (ln)
Give the figure by itself; no unit, no explanation.

# count of solved cases: 5
Ask: Fill in the blank: the reported self-splicing fitness (ln) of `GUCCAGCAAUAUUACGGGAA` is ____.
Result: -0.474

Ask: Find the recorded self-splicing fitness (ln) belonging to `UCCUAGCAAUAUUACGACCA` and report it.
Result: -2.28

Ask: Name the reported self-splicing fitness (ln) value associated with the sequence `GGCAAGCAAUAUUACGGAUG`
Result: -0.798

Ask: Fill blank: measured self-splicing fitness (ln) of the sequence `AUAAAGCAAUAUUACGUUCU` is ____.
Result: 0.404

Ask: Need self-splicing fitness (ln) of `UUCGAGCAAUAUUACGUUCU` , thanks.
Result: -0.345

More entries:
Ask: I would be grateful if you could share the reported self-splicing fitness (ln) for `AGAGAGCAAUAUUACGCCGC` .
Result: -1.49

Ask: Suppose we examine the sequence `CACAAGCAAUAUUACGUUUC` ; what self-splicing fitness (ln) value has been reported?
Result: -1.8

Ask: # lookup: self-splicing fitness (ln) of `ACUCAGCAAUAUUACGGAGA`
Result: -0.997

###

- PROTOCOL TEXT: self-splicing fitness, log relative to wild type (ln ratio); higher = more splicing; Tetrahymena group I intron in knt gene, E. coli kanamycin selection, DiMSum; sequences stand for … in CUCUCU…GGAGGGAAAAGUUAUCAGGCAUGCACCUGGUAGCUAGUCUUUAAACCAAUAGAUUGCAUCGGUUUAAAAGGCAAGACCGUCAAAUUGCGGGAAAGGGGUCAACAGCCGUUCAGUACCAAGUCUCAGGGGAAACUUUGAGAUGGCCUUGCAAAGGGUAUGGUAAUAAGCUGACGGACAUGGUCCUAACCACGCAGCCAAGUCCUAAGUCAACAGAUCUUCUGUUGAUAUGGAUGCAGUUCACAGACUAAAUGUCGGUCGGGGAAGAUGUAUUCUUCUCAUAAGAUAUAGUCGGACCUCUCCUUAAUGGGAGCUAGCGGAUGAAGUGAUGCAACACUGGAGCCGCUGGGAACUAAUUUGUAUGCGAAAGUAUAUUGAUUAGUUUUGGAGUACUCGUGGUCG
- EXPERIMENTAL PARAMETERS: 37 °C
MEASUREMENT LABEL: self-splicing fitness (ln)
Simply state the number, no unit and no words.

Consider the reported self-splicing fitness (ln) for these sequences:
Ask: What value of self-splicing fitness (ln) has been recorded for this entry: `UGACAGCAAUAUUACGUUGU`
Result: -2.58

Ask: Entry under review: `GUUGAGCAAUAUUACGUGAU` . Reported self-splicing fitness (ln)?
Result: -1.6

Ask: Any idea what self-splicing fitness (ln) was measured for `GCUCAGCAAUAUUACGAAAG` ?
Result: -1.93

Further cases:
Ask: Name the recorded self-splicing fitness (ln) for `GCGCAGCAAUAUUACGUCAA` .
Result: -0.0917

Ask: What does the record list as self-splicing fitness (ln) for `AUUUAGCAAUAUUACGGACA` ?
Result: -0.739

Ask: I'd like to know its self-splicing fitness (ln). The sequence in question is `CUGAAGCAAUAUUACGUGAC`
Result: -0.353

Ask: Consider the sequence shown here: `UGGUAGCAAUAUUACGUUGG` What is its recorded self-splicing fitness (ln)?
Result: -1.7

Ask: What does the data say about its self-splicing fitness (ln)? Entry: `CUGAAGCAAUAUUACGAGCG`
Result: 0.0253
